Recorded values, source PubChem BioAssay.

# procedureDetails: plasmodial surface anion channel blockers, osmotic lysis – cell-based, P. falciparum Indochina, OD700, 1 h, primary screen (AID 1154)
# conditionDetails: P. falciparum Indochina infected RBC osmotic lysis, higher = more signal, called active from +8 up or from −8 down
Binning rule for recorded z-score: 1 (below 1), 2 (1 to below 4), 3 (4 or more)

1) O=C1C2C=CC(C(O)c3ccc([N+](=O)[O-])cc3)N(Nc3ccccc3F)C2C(=O)N1c1ccccc1 (stereo not given)	3
2) O=C(NCCN1CCOCC1)[C@@H]1c2ccccc2C(=O)N(Cc2ccc(OC(F)(F)F)cc2)[C@H]1c1ccc(CO)cc1	2

Band of CC(C)NC(=O)[C@@H]1c2ccccc2C(=O)N(Cc2ccccc2C(F)(F)F)[C@H]1c1ccc(CO)cc1 ?
2

Hi there! Could you help me figure out the category for C=CCC(OC(C)=O)[C@@H]1[C@@H](N(Cc2cccc3ccccc23)C(=O)Cc2ccc(OC)cc2)c2cc(OCCCO)ccc2N1C(=O)c1ccc2ccccc2c1 (stereo not given in full) please?
1

GET /class?item= COc1cc(CO)cc(I)c1O[C@H]1C=C(C(=O)NCCO)C[C@@H](NC2CCCCCC2)[C@@H]1O
3
